TEST_SYSTEM: Nitric oxide synthase, inducible (Rattus norvegicus)
MEASUREMENT_DESCRIPTION: Inhibition of iNOS in LPS-stimulated Wistar rat lung assessed as inhibition of [3H]L-arginine to [3H]L-citrulline conversion at 1 mM by liquid scintillation counting
Quick rule for you: inhibition at 50% or higher means yes, lower means no.

SMILES_REPRESENTATION | LABEL_VALUE
O=C(O)c1c(F)c(F)c2[nH]nc(O)c2c1F | no
Cc1n[nH]c2cc(F)cc(F)c12 | yes
CCOC(=O)c1c(F)c(F)c2[nH]nc(O)c2c1F | yes
c1ccc2[nH]ncc2c1 | no
FC(F)(F)c1n[nH]c2ccccc12 | yes
Cc1n[nH]c2c(F)c(F)c([N+](=O)[O-])cc12 | yes
COC(=O)c1c(F)c(F)c2c(O)n[nH]c2c1F | no

Data origin, for the record: ChEMBL document CHEMBL1759883
